Experiment: Antiproliferative activity against human PTJ86i cells assessed as inhibition of cell growth at 75 uM incubated for 72 hrs by MTT assay relative to control
Format: functional
measurement-kind: inhibition at 75 µM

| smiles-text | value-measured |
| --- | --- |
| CC(C)(Oc1ccc(CCOc2ccc(NC(=O)c3ccccc3)cc2)cc1)C(=O)NS(=O)(=O)c1ccccc1 | 84 to 98% |
| CCC(=O)NC[C@H](Cc1ccc(OCCc2nc(-c3ccccc3)oc2C)cc1)N/C(C)=C\C(=O)c1ccc(C(F)(F)F)cc1 | 85 to 92% |
| CC(C)(Oc1ccc(CCOc2ccc(/N=N/c3ccccc3)cc2)cc1)C(=O)NS(=O)(=O)c1ccc(Cl)cc1 | 84 to 98% |
| CC(C)(Oc1ccc(CCOc2ccc(/N=N/c3ccccc3)cc2)cc1)C(=O)NS(=O)(=O)c1ccc([N+](=O)[O-])cc1 | 84 to 98% |

###

We begin with a simple list: items and their reported selectivity ratio.
Experiment: Selectivity index, ratio of CC50 for human HFF1 cells to CC50 for human PTJ64i cells
Assay type: toxicity
Details: HFF1 cells and PTJ64i cells
measurement-kind: selectivity ratio

| smiles-text | value-measured |
| --- | --- |
| CC(C)(Oc1ccc(CCOc2ccc(/N=N/c3ccccc3)cc2)cc1)C(=O)NS(=O)(=O)c1ccc(Cl)cc1 | > 6.35 |
| CC(C)(Oc1ccc(CCOc2ccc(/N=N/c3ccccc3)cc2)cc1)C(=O)NS(=O)(=O)c1ccc([N+](=O)[O-])cc1 | > 8.3 |
| CC(C)(Oc1ccc(CCOc2ccc(NC(=O)c3ccccc3)cc2)cc1)C(=O)NS(=O)(=O)c1ccccc1 | > 9.45 |

###

Target: Peroxisome proliferator-activated receptor gamma (Homo sapiens)
Sequence (P37231 whole entry, the tested form may be a part): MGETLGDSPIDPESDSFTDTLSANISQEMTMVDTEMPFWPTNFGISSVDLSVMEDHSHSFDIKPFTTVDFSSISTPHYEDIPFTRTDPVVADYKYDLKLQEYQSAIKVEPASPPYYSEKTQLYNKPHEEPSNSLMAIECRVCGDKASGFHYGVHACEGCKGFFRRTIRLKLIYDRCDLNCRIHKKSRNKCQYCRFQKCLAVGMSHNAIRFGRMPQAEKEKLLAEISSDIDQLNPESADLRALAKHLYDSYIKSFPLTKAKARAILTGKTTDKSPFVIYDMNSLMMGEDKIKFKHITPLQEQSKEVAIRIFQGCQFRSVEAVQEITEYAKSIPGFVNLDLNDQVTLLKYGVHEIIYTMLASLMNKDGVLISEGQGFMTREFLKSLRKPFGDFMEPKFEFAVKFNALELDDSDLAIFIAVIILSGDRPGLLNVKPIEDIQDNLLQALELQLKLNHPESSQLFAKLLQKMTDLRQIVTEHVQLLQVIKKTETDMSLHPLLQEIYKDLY
Assay: Antagonist activity at GAL4-tagged human PPARgamma LBD expressed in human HepG2 cells assessed as inhibition of Rosiglitazone-induced receptor transactivation incubated for 20 to 22 hrs by luciferase reporter gene assay
pIC50: −log10 of the molar value.

| smiles-text | pIC50 |
| --- | --- |
| CC(C)(Oc1ccc(CCOc2ccc(/N=N/c3ccccc3)cc2)cc1)C(=O)NS(=O)(=O)c1ccccc1 | 4.85 |

###

Experiment: Selectivity index, ratio of CC50 for human HFF1 cells to CC50 for human PTJ86i cells
Format: toxicity
Conditions: HFF1 cells and PTJ86i cells
Below is a list of entries, each paired with its recorded selectivity ratio value.
measurement-kind: selectivity ratio

| smiles-text | measurement-kind | value-measured |
| --- | --- | --- |
| CC(C)(Oc1ccc(CCOc2ccc(/N=N/c3ccccc3)cc2)cc1)C(=O)NS(=O)(=O)c1ccc(Cl)cc1 | selectivity ratio | > 6.63 |
| CC(C)(Oc1ccc(CCOc2ccc(NC(=O)c3ccccc3)cc2)cc1)C(=O)NS(=O)(=O)c1ccccc1 | selectivity ratio | > 11.3 |
| CC(C)(Oc1ccc(CCOc2ccc(/N=N/c3ccccc3)cc2)cc1)C(=O)NS(=O)(=O)c1ccc([N+](=O)[O-])cc1 | selectivity ratio | > 8.63 |

###

Molecular target: Peroxisome proliferator-activated receptor alpha (Homo sapiens)
Sequence (Q07869 whole entry, the tested form may be a part): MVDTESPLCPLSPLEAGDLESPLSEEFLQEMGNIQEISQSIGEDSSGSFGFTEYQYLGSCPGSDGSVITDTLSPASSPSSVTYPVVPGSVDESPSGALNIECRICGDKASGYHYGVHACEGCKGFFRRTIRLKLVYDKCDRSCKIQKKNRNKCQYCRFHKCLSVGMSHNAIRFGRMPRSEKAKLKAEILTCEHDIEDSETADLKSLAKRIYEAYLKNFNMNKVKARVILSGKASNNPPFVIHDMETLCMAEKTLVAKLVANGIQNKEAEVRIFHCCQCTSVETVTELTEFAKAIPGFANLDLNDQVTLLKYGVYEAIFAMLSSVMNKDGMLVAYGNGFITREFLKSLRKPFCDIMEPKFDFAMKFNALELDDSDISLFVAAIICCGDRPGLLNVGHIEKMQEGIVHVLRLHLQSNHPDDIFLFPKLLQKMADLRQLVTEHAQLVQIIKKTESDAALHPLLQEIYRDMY
Assay: Antagonist activity at GAL4-tagged human PPARalpha LBD expressed in human HepG2 cells assessed as inhibition of Wy14,643-induced receptor transactivation incubated for 20 to 22 hrs by luciferase reporter gene assay
Each record here notes measured IC50.

| smiles-text | IC50 |
| --- | --- |
| CC(C)(Oc1ccc(CCOc2ccc(/N=N/c3ccccc3)cc2)cc1)C(=O)NS(=O)(=O)c1ccc([N+](=O)[O-])cc1 | 1.1 µM |
| CC(C)(Oc1ccc(CCOc2ccc(NC(=O)Nc3ccccc3)cc2)cc1)C(N)=O | 3.32 µM |
| CC(C)(Oc1ccc(CCOc2ccc(NC(=O)Nc3ccccc3)cc2)cc1)C(=O)NCc1ccccc1 | 10.3 µM |
| CC(C)(Oc1ccc(CCOc2ccc(NC(=O)c3ccccc3)cc2)cc1)C(N)=O | 7 µM |
| CC(C)(Oc1ccc(CCOc2ccc(NC(=O)Nc3ccccc3)cc2)cc1)C(=O)NS(=O)(=O)c1ccccc1 | 1.52 µM |
| CC(C)(Oc1ccc(CCOc2ccc(NC(=O)c3ccccc3)cc2)cc1)C(=O)Nc1ccccc1 | 12.3 µM |
| CC(C)(Oc1ccc(CCOc2ccc(NC(=O)Nc3ccccc3)cc2)cc1)C(=O)Nc1ccccc1 | 6.1 µM |
| CC(C)(Oc1ccc(CCOc2ccc(NC(=O)c3ccccc3)cc2)cc1)C(=O)NS(=O)(=O)c1ccccc1 | 0.24 µM |
| CC(C)(Oc1ccc(CCOc2ccc(/N=N/c3ccccc3)cc2)cc1)C(=O)NS(=O)(=O)c1ccc(NC(=O)Cc2ccccc2)cc1 | 3.2 µM |
| CC(C)(Oc1ccc(CCOc2ccc(NC(=O)c3ccccc3)cc2)cc1)C(=O)NCc1ccccc1 | 12.1 µM |
| CC(C)(Oc1ccc(CCOc2ccc(/N=N/c3ccccc3)cc2)cc1)C(=O)NS(=O)(=O)c1ccc(Cl)cc1 | 0.21 µM |
| CC(C)(Oc1ccc(CCOc2ccc(/N=N/c3ccccc3)cc2)cc1)C(=O)NS(=O)(=O)c1ccccc1 | 1.2 µM |

###

Biological target: Peroxisome proliferator-activated receptor gamma (Homo sapiens) (UniProt P37231)
Assay: Effect on GAL4-tagged human PPARgamma LBD expressed in human HepG2 cells incubated for 20 to 22 hrs by luciferase reporter gene assay
Assay type: cell-based
Calls of active or inactive are those of the source. No cut-off for these calls is given here.

| smiles-text | Activity |
| --- | --- |
| CC(C)(Oc1ccc(CCOc2ccc(/N=N/c3ccccc3)cc2)cc1)C(=O)NS(=O)(=O)c1ccc(Cl)cc1 | inactive |
| CC(C)(Oc1ccc(CCOc2ccc(NC(=O)Nc3ccccc3)cc2)cc1)C(=O)Nc1ccccc1 | inactive |
| CC(C)(Oc1ccc(CCOc2ccc(NC(=O)c3ccccc3)cc2)cc1)C(=O)NCc1ccccc1 | inactive |
| CC(C)(Oc1ccc(CCOc2ccc(/N=N/c3ccccc3)cc2)cc1)C(=O)Nc1ccccc1 | inactive |
| CCCCNC(=O)C(C)(C)Oc1ccc(CCOc2ccc(NC(=O)c3ccccc3)cc2)cc1 | inactive |
| CC(C)(Oc1ccc(CCOc2ccc(NC(=O)Nc3ccccc3)cc2)cc1)C(=O)NS(=O)(=O)c1ccccc1 | inactive |
| CC(C)(Oc1ccc(CCOc2ccc(NC(=O)Nc3ccccc3)cc2)cc1)C(=O)NCc1ccccc1 | inactive |
| CC(C)(Oc1ccc(CCOc2ccc(/N=N/c3ccccc3)cc2)cc1)C(=O)NS(=O)(=O)c1ccc([N+](=O)[O-])cc1 | inactive |
| CC(C)(Oc1ccc(CCOc2ccc(NC(=O)c3ccccc3)cc2)cc1)C(N)=O | inactive |
| CC(C)(Oc1ccc(CCOc2ccc(NC(=O)c3ccccc3)cc2)cc1)C(=O)Nc1ccccc1 | inactive |
| CC(C)(Oc1ccc(CCOc2ccc(/N=N/c3ccccc3)cc2)cc1)C(=O)NS(=O)(=O)c1ccc(NC(=O)Cc2ccccc2)cc1 | inactive |
| CC(C)(Oc1ccc(CCOc2ccc(NC(=O)Nc3ccccc3)cc2)cc1)C(N)=O | inactive |
| CC(C)(Oc1ccc(CCOc2ccc(NC(=O)c3ccccc3)cc2)cc1)C(=O)NS(=O)(=O)c1ccccc1 | inactive |
